Test system: Swiss-Webster male mice
experiment.description: Mouse Activity and Screen Test (MAST): screen test (ST)
Assay type: in vivo
stated.conditions: lowest dose at which an A rating (60-100%) is achieved, screen test; intraperitoneally
Protocol: Treatments are administered intraperitoneally one hour prior to testing. […] Compounds are dissolved or suspended in 0.2% Methocel. Control animals are injected with Methocel. The compounds are identified in the Examples.
# maps each entry to its MAST ST LAD

{"columns": ["compound", "MAST ST LAD"],
 "data": [
  ["O=C(OC[C@H]1O[C@@H](n2cnc3c(NCC(c4ccccc4)c4ccccc4)ncnc32)[C@H](OC(=O)c2ccccc2)[C@@H]1OC(=O)c1ccccc1)c1ccccc1 [Example 26]", ">100 mg/kg"],
  ["O=P(O)(O)OC[C@H]1O[C@@H](n2cnc3c(NCC(c4ccccc4)c4ccccc4)ncnc32)[C@H](O)[C@@H]1O [Example 28]", ">30 mg/kg"],
  ["COc1ccc(C(CNc2ncnc3c2ncn3[C@@H]2O[C@H](CO)[C@@H](O)[C@H]2O)c2ccccc2)cc1 (stereo partly shown) [Example 19]", "30 mg/kg"],
  ["OC[C@H]1O[C@@H](n2cnc3c(NCC(c4ccccc4)c4ccc(F)cc4)nc(Cl)nc32)[C@H](O)[C@@H]1O (stereo partly shown) [Example 11]", ">100 mg/kg"]
]}

###

Tested on: rat heart
experiment.description: Coronary blood flow (PCS2A): isolated perfused heart
stated.conditions: heart rate, isolated perfused rat heart; read-out: PCS2A HR ED50

{"columns": ["compound", "EC50"],
 "data": [
  ["OC[C@H]1O[C@@H](n2cnc3c(NCCC(c4ccccc4)c4ccccc4)ncnc32)[C@H](O)[C@@H]1O [Example 2, N^6-(3,3-Diphenylpropyl)adenosine]", "6 µM"],
  ["OC[C@H]1O[C@@H](n2cnc3c(NCC(c4ccccc4)c4ccccc4)nc(Cl)nc32)[C@H](O)[C@@H]1O [Example 3, N^6-(2,2-Dipenylethyl)-2-chloroadenosine]", "> 30 µM"],
  ["Nc1nc(NCC(c2ccccc2)c2ccccc2)c2ncn([C@@H]3O[C@H](CO)[C@@H](O)[C@H]3O)c2n1 [Example 4, N^6-(2,2-Diphenylethyl)-2-aminoadenosine]", "> 0.1 µM"]
]}

###

Tested on: Swiss-Webster male mice
experiment.description: Mouse Activity and Screen Test (MAST): screen test (ST)
Format: in vivo
stated.conditions: lowest dose at which an A rating (60-100%) is achieved, screen test; intraperitoneally
Method: Treatments are administered intraperitoneally one hour prior to testing. […] Compounds are dissolved or suspended in 0.2% Methocel. Control animals are injected with Methocel. The compounds are identified in the Examples.

{"columns": ["compound", "measurement.target", "MAST ST LAD"],
 "data": [
  ["Cc1cccc(C(CNc2ncnc3c2ncn3[C@@H]2O[C@H](CO)[C@@H](O)[C@H]2O)c2ccccc2)c1 (stereo partly drawn)", "Swiss-Webster male mice", "100 mg/kg"],
  ["OC[C@H]1O[C@@H](n2cnc3c(NCC(c4ccccc4)c4ccc(F)cc4)ncnc32)[C@H](O)[C@@H]1O (stereo partly drawn)", "Swiss-Webster male mice", ">100 mg/kg"],
  ["Nc1nc(NCC(c2ccccc2)c2ccc(F)cc2)c2ncn([C@@H]3O[C@H](CO)[C@@H](O)[C@H]3O)c2n1 (stereo partly drawn)", "Swiss-Webster male mice", ">100 mg/kg"]
]}

Origin of the recorded values: patent EP0139358B1
